tested on: 616215-338-R-J1-PDC tumor spheroids, viability; test: Anticancer human tumor 616215-338-R-J1-PDC patient-derived colon adenocarcinoma cell line growth inhibition [GQUAD]; details: curve of first compound; second compound 3.16 µM; spheroids with HUVEC and MSC;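 note: spheroids exposed to agents for 7 days before readout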
pIC50: −log10 of the molar value.
Assignment: determine reported pIC50 for the given compounds.

# get_value(readout='pIC50', item= Cn1ncnc1[C@H]1c2n[nH]c(=O)c3cc(F)cc(c23)N[C@@H]1c1ccc(F)cc1 + CN(C)c1ccc(Nc2c3ccc(NC(=O)CCN4CCCC4)cc3nc3cc(NC(=O)CCN4CCCC4)ccc23)cc1 ) < 6.50

Next compound: Nc1ccn(C2OC(CO)C(O)C2(F)F)c(=O)n1 (configuration not stated) + Cc1[nH]c2ccc(F)cc2c1-c1nc2c3cccnc3c3ncccc3c2[nH]1 > 7.50

Repeat for the following compound: CC(C)n1c(=O)n(C)c2cnc3cc(F)c(-c4ccc(OCCCN5CCCCC5)nc4)cc3c21 + Cc1[nH]c2ccc(F)cc2c1-c1nc2c3cccnc3c3ncccc3c2[nH]1 < 5.00

Same for Nc1ccn(C2OC(CO)C(O)C2(F)F)c(=O)n1 (configuration not stated) + Cc1cnc(CNC(=O)c2c(=O)c3ccc(N4CCCN(C)CC4)nc3n3c2sc2ccccc23)cn1 > 7.50

Repeat for the following compound: COc1ncnc(C2CC2)c1-c1ncc2cnn(Cc3ccc(-c4nc(C(F)(F)F)cn4C(C)C)cc3)c2n1 + CN(C)c1ccc(Nc2c3ccc(NC(=O)CCN4CCCC4)cc3nc3cc(NC(=O)CCN4CCCC4)ccc23)cc1 < 5.00

Then this compound: COc1ncnc(C2CC2)c1-c1ncc2cnn(Cc3ccc(-c4nc(C(F)(F)F)cn4C(C)C)cc3)c2n1 + Cc1[nH]c2ccc(F)cc2c1-c1nc2c3cccnc3c3ncccc3c2[nH]1 < 5.00

Note, next up: COc1ccc([C@@H](O)c2cc(-c3ncnc4cc(N5CCOCC5)ccc34)c(F)cc2Cl)nn1 + Cc1[nH]c2ccc(F)cc2c1-c1nc2c3cccnc3c3ncccc3c2[nH]1 < 5.00
